- Test system: ESD
- Protocol Text: LYPLA1 inhibition and serine hydrolase selectivity, late-stage follow-up, fluorescence, gel-based ABPP, mouse proteome (AID 504520);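 note: soluble proteome from BW5147 murine T cells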
- Protocol Conditions: FP-rhodamine fluorescence, inhibition, at 0.15 µM, stronger effect = higher value
Value Type: inhibition (%)
Provide the reading as a plain figure in %.

Here is how some compounds turned out for inhibition.
{"Compound": "O=C(N(c1ccccc1)c1ccc(Br)cc1)n1ncc(C(O)(c2ccccc2)c2ccccc2)n1", "inhibition (%)": 0}
{"Compound": "O=C(N1CCc2ccccc2C1)n1ncc(C(O)(c2ccccc2)c2ccccc2)n1", "inhibition (%)": 10}
{"Compound": "O=C(N(c1ccccc1)c1cccc(Br)c1)n1ncc(C(O)(c2ccccc2)c2ccccc2)n1", "inhibition (%)": 0}
{"Compound": "CCC1CCCCN1C(=O)n1ncc(C(O)(c2ccccc2)c2ccccc2)n1 (stereo not given)", "inhibition (%)": 0}

# next compound below
Item CC1CCN(C(=O)n2ncc(C(O)(c3ccccc3)c3ccccc3)n2)CC1 has what recorded inhibition? 0

* * *

- Test system: LYPLA2
- Protocol Text: LYPLA1 inhibition and serine hydrolase selectivity, late-stage follow-up, fluorescence, gel-based ABPP, mouse proteome (AID 504520);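 note: soluble proteome from BW5147 murine T cells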
- Protocol Conditions: FP-rhodamine fluorescence, at 0.75 µM, stronger effect = higher value
Each entry below carries its reported inhibition.
Reply numerically in %, unit not repeated.

{"Compound": "O=C(N(c1ccccc1)c1ccccc1)n1ncc(C(O)(c2ccccc2)c2ccccc2)n1", "Value Type": "inhibition", "Unit Label": "%", "Experimental Result": 0}
{"Compound": "CN(C(=O)n1ncc(C(O)(c2ccccc2)c2ccccc2)n1)c1ccccc1", "Value Type": "inhibition", "Unit Label": "%", "Experimental Result": 0}
{"Compound": "O=C(OC(c1ccccc1)c1cnn(C(=O)N2CCCCC2)n1)N1CCCCC1 (stereo not given)", "Value Type": "inhibition", "Unit Label": "%", "Experimental Result": 25}
{"Compound": "O=C(N(c1ccccc1)c1ccc2ccccc2c1)n1ncc(C(O)(c2ccccc2)c2ccccc2)n1", "Value Type": "inhibition", "Unit Label": "%", "Experimental Result": 0}

Field request: inhibition | item: CC1CCN(C(=O)n2ncc(C(O)(c3ccccc3)c3ccccc3)n2)CC1 50

* * *

- System: ABHD11
- Protocol Text: LYPLA1 inhibition and serine hydrolase selectivity, late-stage follow-up, fluorescence, gel-based ABPP, mouse proteome (AID 504520);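 note: soluble proteome from BW5147 murine T cells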
- Protocol Conditions: FP-rhodamine fluorescence, inhibition, at 0.03 µM, stronger effect = higher value
Value Type: inhibition (%)
Report as a plain number; the unit % is understood.

Sample records with inhibition:
{"Compound": "O=C(N(c1ccccc1)c1ccccc1)n1ncc(-c2ccc(-c3ccccc3)cc2)n1", "Unit Label": "%", "inhibition": 0}
{"Compound": "O=C(N1CCCCC1)n1ncc(C(O)(c2ccccc2)c2ccccc2)n1", "Unit Label": "%", "inhibition": 100}
{"Compound": "CCC1CCCCN1C(=O)n1ncc(C(O)(c2ccccc2)c2ccccc2)n1 (stereo not given)", "Unit Label": "%", "inhibition": 100}
{"Compound": "O=C(N1CCCC(Cc2ccccc2)C1)n1cc(C(O)(c2ccccc2)c2ccccc2)nn1 (stereo not given)", "Unit Label": "%", "inhibition": 100}
{"Compound": "CC(C)CC(O)(CC(C)C)c1cnn(C(=O)N(c2ccccc2)c2ccccc2)n1", "Unit Label": "%", "inhibition": 0}

Could you share what inhibition was measured for O=C(N(c1ccccc1)c1ccc(Br)cc1)n1ncc(C(O)(c2ccccc2)c2ccccc2)n1 , tested on ABHD11? 0

Lookup: inhibition / ABHD11 / COC1CCN(C(=O)n2ncc(C(O)(c3ccccc3)c3ccccc3)n2)CC1 100

What value of inhibition on ABHD11 does O=C(N(c1ccccc1)c1ccccc1)n1ncc(C(O)(c2ccccc2)c2ccccc2)n1 have? 0

Given the entry CN(C(=O)n1ncc(C(O)(c2ccccc2)c2ccccc2)n1)c1ccccc1 , what inhibition was observed with ABHD11? 0

Recorded inhibition for O=C(N(c1ccccc1)c1cccc(Br)c1)n1ncc(C(O)(c2ccccc2)c2ccccc2)n1 with ABHD11, please? 0

* * *

- Tested on: LYPLA1
- Protocol Text: LYPLA1 inhibition and serine hydrolase selectivity, late-stage follow-up, fluorescence, gel-based ABPP, mouse proteome (AID 504520);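 note: soluble proteome from BW5147 murine T cells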
- Protocol Conditions: FP-rhodamine fluorescence, inhibition, at 0.03 µM, stronger effect = higher value
# inhibition per entry
The answer is to be given in %; state only the numeric part.

Worked examples, 3 molecules total:
{"Molecule": "COCCCC1CCCCN1C(=O)n1ncc(C(O)(c2ccccc2)c2ccccc2)n1 (stereo not given)", "Experimental Result": 0}
{"Molecule": "O=C(N1CCCCC1)n1ncc(C(O)c2ccccc2)n1 (stereo not given)", "Experimental Result": 50}
{"Molecule": "O=C(N1CCCC(Cc2ccccc2)C1)n1cc(C(O)(c2ccccc2)c2ccccc2)nn1 (stereo not given)", "Experimental Result": 0}

Test system LYPLA1; read-out inhibition; what value for O=C(N(c1ccccc1)c1ccccc1)n1ncc(C(O)(c2ccccc2)c2ccccc2)n1 ? 0

Provide value of inhibition for this record tested with LYPLA1: O=C(N1CCc2ccccc2C1)n1ncc(C(O)(c2ccccc2)c2ccccc2)n1 0

# query: inhibition | item CC1CCN(C(=O)n2ncc(C(O)(c3ccccc3)c3ccccc3)n2)CC1 | system: LYPLA1 50

Lab note: need inhibition for O=C(OC(c1ccccc1)c1cnn(C(=O)N2CCCCC2)n1)N1CCCCC1 (stereo not given) on LYPLA1, anyone have it? 100

Find the measured inhibition: item O=C(N1CCCCC1)n1ncc(C(O)(c2ccccc2)c2ccccc2)n1 , target or system LYPLA1. 50

Test system LYPLA1; read-out inhibition; what value for O=C(N(c1ccccc1)c1cccc(Br)c1)n1ncc(C(O)(c2ccccc2)c2ccccc2)n1 ? 0

For LYPLA1, provide inhibition of COC1CCN(C(=O)n2ncc(C(O)(c3ccccc3)c3ccccc3)n2)CC1 please. 0

* * *

- Tested on: LYPLA1
- Protocol Text: LYPLA1 inhibition and serine hydrolase selectivity, late-stage follow-up, fluorescence, gel-based ABPP, mouse proteome (AID 504520);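 note: soluble proteome from BW5147 murine T cells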
- Protocol Conditions: FP-rhodamine fluorescence, inhibition, at 0.03 µM, stronger effect = higher value
Value Type: inhibition (%)
The figure you give is taken to be in %; do not add the unit.

Examples with their reported inhibition follow.
{"Molecule": "CCC1CCCCN1C(=O)n1ncc(C(O)(c2ccccc2)c2ccccc2)n1 (stereo not given)", "Unit Label": "%", "inhibition": 0}
{"Molecule": "COc1ccc2cc(-c3cnn(C(=O)N(c4ccccc4)c4ccccc4)n3)ccc2c1", "Unit Label": "%", "inhibition": 0}
{"Molecule": "CC(C)CC(O)(CC(C)C)c1cnn(C(=O)N(c2ccccc2)c2ccccc2)n1", "Unit Label": "%", "inhibition": 0}
{"Molecule": "CN(C(=O)n1ncc(C(O)(c2ccccc2)c2ccccc2)n1)c1ccccc1", "Unit Label": "%", "inhibition": 0}

Moving on to another molecule below.
Please report the recorded inhibition for O=C(N(c1ccccc1)c1ccccc1)n1ncc(-c2cc(F)cc(F)c2)n1 . 0

* * *

- Test system: LYPLA2
- Protocol Text: LYPLA1 inhibition and serine hydrolase selectivity, late-stage follow-up, fluorescence, gel-based ABPP, mouse proteome (AID 504520);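 note: soluble proteome from BW5147 murine T cells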
- Protocol Conditions: FP-rhodamine fluorescence, inhibition, at 0.15 µM, stronger effect = higher value
Value Type: inhibition (%)
Reply numerically in %, unit not repeated.

Look over these answered cases.
{"Compound": "COCCCC1CCCCN1C(=O)n1ncc(C(O)(c2ccccc2)c2ccccc2)n1 (stereo not given)", "Unit Label": "%", "inhibition": 0}
{"Compound": "O=C(N(c1ccccc1)c1ccccc1)n1ncc(C(O)(c2ccccc2)c2ccccc2)n1", "Unit Label": "%", "inhibition": 0}
{"Compound": "CN(C(=O)n1ncc(C(O)(c2ccccc2)c2ccccc2)n1)c1ccccc1", "Unit Label": "%", "inhibition": 0}

Name the recorded inhibition for O=C(N(c1ccccc1)c1cccc(Br)c1)n1ncc(C(O)(c2ccccc2)c2ccccc2)n1 . 0

What value of measured inhibition is listed for O=C(N1CCCC(Cc2ccccc2)C1)n1cc(C(O)(c2ccccc2)c2ccccc2)nn1 (stereo not given) ? 0

For O=C(N(c1ccccc1)c1ccccc1)n1ncc(-c2cc(F)cc(F)c2)n1 , what is its reported inhibition? 0

// query inhibition value for entry CCC1CCCCN1C(=O)n1ncc(C(O)(c2ccccc2)c2ccccc2)n1 (stereo not given) 0

Given the compound COc1ccc2cc(-c3cnn(C(=O)N(c4ccccc4)c4ccccc4)n3)ccc2c1 , what is its reported inhibition? 0

Which measured inhibition value corresponds to O=C(N1CCCCC1)n1ncc(C(O)c2ccccc2)n1 (stereo not given) ? 0

# get_value(readout='inhibition', item= O=C(N1CCCCC1)n1ncc(C(O)(c2ccccc2)c2ccccc2)n1 ) 0

Please give the measured inhibition for this compound: O=C(N(c1ccccc1)c1ccccc1)n1ncc(-c2ccc(Oc3ccccc3)cc2)n1 0

Which measured inhibition value corresponds to O=C(N(c1ccccc1)c1ccc2ccccc2c1)n1ncc(C(O)(c2ccccc2)c2ccccc2)n1 ? 0

* * *

- System: ESD
- Protocol Text: LYPLA1 inhibition and serine hydrolase selectivity, late-stage follow-up, fluorescence, gel-based ABPP, mouse proteome (AID 504520);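 note: soluble proteome from BW5147 murine T cells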
- Protocol Conditions: FP-rhodamine fluorescence, inhibition, at 0.03 µM, stronger effect = higher value
# reported inhibition; entries follow
Give the value, in units of %, as a plain number.

Example entries begin here.
{"Compound": "CCC1CCCCN1C(=O)n1ncc(C(O)(c2ccccc2)c2ccccc2)n1 (stereo not given)", "Unit Label": "%", "inhibition": 0}
{"Compound": "O=C(N1CCCCC1)n1ncc(C(O)(c2ccccc2)c2ccccc2)n1", "Unit Label": "%", "inhibition": 0}
{"Compound": "CC1CCN(C(=O)n2ncc(C(O)(c3ccccc3)c3ccccc3)n2)CC1", "Unit Label": "%", "inhibition": 0}
{"Compound": "O=C(N1CCc2ccccc2C1)n1ncc(C(O)(c2ccccc2)c2ccccc2)n1", "Unit Label": "%", "inhibition": 0}
{"Compound": "CC(C)CC(O)(CC(C)C)c1cnn(C(=O)N(c2ccccc2)c2ccccc2)n1", "Unit Label": "%", "inhibition": 0}

Bench note: what inhibition did O=C(N(c1ccccc1)c1ccccc1)n1ncc(-c2cc(F)cc(F)c2)n1 show? 0

What does the data say about its inhibition? Entry: COCC1CCCCN1C(=O)n1ncc(C(O)(c2ccccc2)c2ccccc2)n1 (stereo not given) 0

Bench note: what inhibition did CN(C(=O)n1ncc(C(O)(c2ccccc2)c2ccccc2)n1)c1ccccc1 show? 0

Looking for the measured inhibition of O=C(N(c1ccccc1)c1ccc2ccccc2c1)n1ncc(C(O)(c2ccccc2)c2ccccc2)n1 , can you help? 0

What value of inhibition has been reported for the following compound? O=C(N(c1ccccc1)c1ccccc1)n1ncc(C(O)(c2ccccc2)c2ccccc2)n1 0

The measured values listed here are drawn from PubChem BioAssay AID504520.
